Tested on: HL-60(TB) leukemia
EXPERIMENT NOTES: NCI tumour cell line growth inhibition, 48 h
VALUE TYPE: TGI

INSERT INTO results (compound, experimental_result) VALUES
  ('N#C/C(=C\c1ccc(O)cc1)C(N)=O', '> 100 µM'),
  ('Cc1ccc(C)c2c1C1CCCCC3(OCCCO3)C21O (stereo unspecified)', '> 100 µM'),
  ('O=C(O)CNc1ccc2c(c1)Cc1cc(Br)ccc1-2', '> 100 µM'),
  ('CN1NC(c2ccc(Cl)cc2)=C(C#N)C(=O)CC1c1ccccc1 (stereo unspecified)', '> 100 µM'),
  ('FC(F)(F)c1ccccc1C1SCc2nc3ccccc3n21 (stereo unspecified)', '47 µM'),
  ('Cc1ccc(/C=c2\cc3oc(=O)c4cccc(c4-3)c2=O)cc1', '> 100 µM'),
  ('ClC1=NSSC1(Cl)Cl', '5.25 µM'),
  ('CC(C)c1ccc(O)c(Cc2cc(C(C)C)cc(Cc3cc(C(C)C)ccc3O)c2O)c1', '4.36 µM'),
  ('CC[C@H](C)[C@H](NC(=O)C12C3C4C1C1C2C3C41NC)C(=O)N(C)[C@H](C[C@@H](OC(C)=O)c1nc(C(=O)N[C@@H](Cc2ccccc2)C[C@H](C)C(=O)OC)cs1)C(C)C (stereo partly specified)', '0.346 µM'),
  ('c1ccc(C(Oc2noc3ccccc23)c2ccccc2)cc1', '61.3 µM'),
  ('OCCCN=C1CCCCC1', '> 100 µM');
